Exercise: state measured IC50 for each of the compounds provided.
molecular target: Disintegrin and metalloproteinase domain-containing protein 17 (Homo sapiens, UniProt P78536); experiment: Inhibition of TACE in NHEK assessed as reduction in LPS/TPA-stimulated TNFalpha production preincubated for 1 hr followed by LPS/TPA stimulation for 24 hrs by HTRF assay
Sequence (P78536 whole entry, the tested form may be a part): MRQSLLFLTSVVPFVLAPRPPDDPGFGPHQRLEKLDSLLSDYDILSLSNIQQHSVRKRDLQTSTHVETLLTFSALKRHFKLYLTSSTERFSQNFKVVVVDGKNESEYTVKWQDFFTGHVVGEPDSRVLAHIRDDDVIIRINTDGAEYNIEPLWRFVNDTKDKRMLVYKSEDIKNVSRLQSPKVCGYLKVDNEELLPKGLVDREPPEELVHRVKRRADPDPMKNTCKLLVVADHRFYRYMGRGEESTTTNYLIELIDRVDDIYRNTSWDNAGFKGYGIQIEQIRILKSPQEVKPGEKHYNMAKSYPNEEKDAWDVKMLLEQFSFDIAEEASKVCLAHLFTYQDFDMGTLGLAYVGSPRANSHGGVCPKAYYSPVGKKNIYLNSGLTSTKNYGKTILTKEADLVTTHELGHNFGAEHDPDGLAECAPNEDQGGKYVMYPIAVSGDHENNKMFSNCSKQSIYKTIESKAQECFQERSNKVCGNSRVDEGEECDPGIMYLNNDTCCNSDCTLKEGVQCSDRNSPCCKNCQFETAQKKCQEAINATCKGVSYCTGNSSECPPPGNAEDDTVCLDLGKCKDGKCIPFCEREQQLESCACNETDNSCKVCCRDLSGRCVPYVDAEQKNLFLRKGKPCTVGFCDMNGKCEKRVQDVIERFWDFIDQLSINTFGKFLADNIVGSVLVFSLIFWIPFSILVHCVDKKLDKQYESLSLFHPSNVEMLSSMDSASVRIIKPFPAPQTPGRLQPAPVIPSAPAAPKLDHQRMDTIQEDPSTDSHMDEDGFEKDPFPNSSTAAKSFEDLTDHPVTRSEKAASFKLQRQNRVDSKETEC
API: value field is a number in nM; no unit string.

Sample CC1(C)SCCN(S(=O)(=O)c2ccc(OCC#CCO)cc2)[C@H]1C(=O)NO — what was its IC50?
120

Sample Cc1cc(COc2ccc(S(=O)(=O)N3CCN(C(=O)C(C)(C)C)C(C(=O)NO)C3)cc2)c2c(n1)CCCC2 (configuration not stated) — what was its IC50?
1300

Sample Cc1cc(COc2ccc(S(=O)(=O)NC[C@@H](C(=O)NO)N3CCCCC3)cc2)c2c(n1)CCCC2 — what was its IC50?
60
